Assay: Hill coefficient for equilibrium binding was evaluated (Inositol 1,4,5-trisphosphate receptor)
Note to self: values exactly at 1 are YES. So Hill slope at or above 1 is YES, below is NO.

{"COMPOUND": "O=P(O)(O)OC1[C@@H](OP(=O)(O)O)C(CO)O[C@@H](O[C@@H]2[C@H](OP(=O)(O)O)C(OCCCc3ccc(CCCOC4O[C@H](CO)[C@H](O[C@@H]5OC(CO)[C@H](OP(=O)(O)O)C(OP(=O)(O)O)[C@@H]5O)[C@@H]4OP(=O)(O)O)cc3)O[C@@H]2CO)[C@H]1O (stereo partly specified)", "CAT": "NO"}
{"COMPOUND": "O=P(O)(O)OC1[C@@H](OP(=O)(O)O)C(CO)O[C@@H](O[C@@H]2[C@H](OP(=O)(O)O)C(OCCCc3cc(CCCOC4O[C@H](CO)[C@H](O[C@@H]5OC(CO)[C@H](OP(=O)(O)O)C(OP(=O)(O)O)[C@@H]5O)[C@@H]4OP(=O)(O)O)c(CCCOC4O[C@H](CO)[C@H](O[C@@H]5OC(CO)[C@H](OP(=O)(O)O)C(OP(=O)(O)O)[C@@H]5O)[C@@H]4OP(=O)(O)O)cc3CCCOC3O[C@H](CO)[C@H](O[C@@H]4OC(CO)[C@H](OP(=O)(O)O)C(OP(=O)(O)O)[C@@H]4O)[C@@H]3OP(=O)(O)O)O[C@@H]2CO)[C@H]1O (stereo partly specified)", "CAT": "YES"}
{"COMPOUND": "O=P(O)(O)OC1[C@@H](OP(=O)(O)O)C(O)C(O)[C@@H](OP(=O)(O)O)[C@H]1O (stereo partly specified)", "CAT": "NO"}

Q: Would you say O=P(O)(O)OC1[C@@H](OP(=O)(O)O)C(CO)O[C@@H](O[C@@H]2[C@H](OP(=O)(O)O)C(OCCCc3ccccc3)O[C@@H]2CO)[C@H]1O (stereo partly specified) shows Hill slope at minimum 1?
A: YES

Q: Would you say CCCOC1O[C@H](CO)[C@H](O[C@@H]2OC(CO)[C@H](OP(=O)(O)O)C(OP(=O)(O)O)[C@@H]2O)[C@@H]1OP(=O)(O)O (stereo partly specified) shows Hill slope at minimum 1?
A: NO

###

Recorded pKd, one value per entry.
Assay: Binding affinity was measured by equilibrium competing with [3H]IP3 (Inositol 1,4,5-trisphosphate receptor)
Units for pKd: none; it is -log10 of a concentration expressed in mol/L.

Completed entries (count: 2):
{"COMPOUND": "O=P(O)(O)OC1[C@@H](OP(=O)(O)O)C(CO)O[C@@H](O[C@@H]2[C@H](OP(=O)(O)O)C(OCCCc3ccccc3)O[C@@H]2CO)[C@H]1O (stereo partly drawn)", "VALUE MEASURED": 8.51}
{"COMPOUND": "O=P(O)(O)OC1[C@@H](OP(=O)(O)O)C(O)C(O)[C@@H](OP(=O)(O)O)[C@H]1O (stereo partly drawn)", "VALUE MEASURED": 8.77}

Q: I have this compound here, CCCOC1O[C@H](CO)[C@H](O[C@@H]2OC(CO)[C@H](OP(=O)(O)O)C(OP(=O)(O)O)[C@@H]2O)[C@@H]1OP(=O)(O)O (stereo partly drawn) , and I need its recorded pKd.
A: 8.33

###

Assay: Binding affinity was measured by equilibrium competing with [3H]IP3 (Inositol 1,4,5-trisphosphate receptor)
MEASURED PARAMETER: pKd
Units for pKd: none; it is -log10 of a concentration expressed in mol/L.

{"COMPOUND": "O=P(O)(O)OC1[C@@H](OP(=O)(O)O)C(CO)O[C@@H](O[C@@H]2[C@H](OP(=O)(O)O)C(OCCCc3cc(CCCOC4O[C@H](CO)[C@H](O[C@@H]5OC(CO)[C@H](OP(=O)(O)O)C(OP(=O)(O)O)[C@@H]5O)[C@@H]4OP(=O)(O)O)c(CCCOC4O[C@H](CO)[C@H](O[C@@H]5OC(CO)[C@H](OP(=O)(O)O)C(OP(=O)(O)O)[C@@H]5O)[C@@H]4OP(=O)(O)O)cc3CCCOC3O[C@H](CO)[C@H](O[C@@H]4OC(CO)[C@H](OP(=O)(O)O)C(OP(=O)(O)O)[C@@H]4O)[C@@H]3OP(=O)(O)O)O[C@@H]2CO)[C@H]1O (stereo partly drawn)", "pKd": 8.37}

Q: I have this compound here, CO[C@@H]1O[C@H](CO)[C@@H](O[C@H]2O[C@@H](CO)[C@@H](OP(=O)(O)O)[C@H](OP(=O)(O)O)[C@@H]2O)[C@H]1OP(=O)(O)O , and I need its recorded pKd.
A: 8.36

Q: I have this compound here, O=P(O)(O)OC1[C@@H](OP(=O)(O)O)C(CO)O[C@@H](O[C@@H]2[C@H](OP(=O)(O)O)C(OCCCc3ccc(CCCOC4O[C@H](CO)[C@H](O[C@@H]5OC(CO)[C@H](OP(=O)(O)O)C(OP(=O)(O)O)[C@@H]5O)[C@@H]4OP(=O)(O)O)cc3)O[C@@H]2CO)[C@H]1O (stereo partly drawn) , and I need its recorded pKd.
A: 8.44
